# Test target: human Claudin18.2 (human)
# Measurement protocol: cell-based or functional assay
CDC EC50 reference
Numbers only; they are read as µg/mL.

Use the examples below as a reference point.
• 185F2G12 (antibody, V domains shown) VH: QAYLQQSGAELVRSGASVKMSCKASGYTFTSYNMHWVRQTPGQGLEWIGYIYPGNGGTNYSQKFKGKASLTADTSSTTAYMQISSLTSEDSAVYFCATGRGFAYWGQGTLVTVSA VL: DIVMTQSPSSLTVTAGEKVTLSCKSSQSLFNTGNQKNYLTWYQQKPGQPPKLLIFRASTRESGVPDRFTGSGFGTDFTLTISSVQAEDLAVYYCQNDFSYPLTFGAGTKLELK = 0.291
• 420G10G3 (antibody, V domains shown) VH: DVQLVESGGGLVQPGGSRKLSCAASGFTFSGFGMHWIRQTAEKGLEWVAYISSGSRPIYYADTVQGRFTISRDNPKNTLFLQMTSLRSEDTAMYFCARFYYGNSFDHWGQGTLVTVSA VL: DIVMTQSPSFLTVTAGEKVTMSCKSSQSLLNSGNQKNYLTWYQQKPGQPPKLLIYWASTRESGVPDRFTGSGSGTDFTLTISSVQAEDLALYYCQNAYSFPLTFGAGTKLELK = 2.63

Here is another binder to look at.
q: Reported CDC EC50 for 263E9F3 (antibody, V domains shown) VH: EIQVQQSGPELMKPGASVKISCRSSGYSFTSYYIHWVKQSRGKSLEWIGYIDPFSGGTRYNQKFEGKATLTVDKSSTTAYMHLSSLTSEDSAVYYCASLRFFAYWGQGTLVTVSA VL: DIVMTQSPSSLTVTAGEKVTMTCKSSQSLLNSGNQENYLTWYQQKPGQPPELLISRASTRQSGVPDRFTGSGSGTDFTLTISSVQTEDLAVYYCQNDYSYPLTFGAGTKLELK : what is it?
a: 1.48

Hey, just so you know, these numbers are from patent US20220073643A1.
